Reported absorbance (450 nm) values are given for each entry in this list.
Molecular target: SARS-CoV-2 full-length Spike Recombinant Antigen B.1.351 Mutation (Bio-Serv) (SARS-CoV-2, UniProt P0DTC2 14-1273)
Assay: ELISA, VHH on nickel plate, spike in solution (0-500 ng/mL)

binder | absorbance (450 nm)
Bacillus subtilis-derived VHH-COVE9 (VHH) VHH: EVQLVESGGGLVQPGGSLRLSCAASGTIFSTNAMSWYRQAPGKQRELVAAITSGGNTNYADSVKGRFTISRDNAKNTVYLQMNSLKPEDTAVYYCNAPGVVTGSYDVRNYWGQGTQVTVSS | 0.97
Bacillus subtilis-derived VHH-COVE7 (VHH) VHH: EVQLVESGGGLVQAGDSLRLSCTASGRTFSSCAMGWFRQAPGKEREFVAAISRGGGSTSYADSVKGRFTISKDRARNTAYLEMNSLKPEDTAIYYCYAVFPSGGDYWGQGTQVTVSS | 0.97
